# System: HeLa
# procedureSummary: Cytotoxicity against human HeLa cells assessed as cell viability after 72 hrs by MTS assay
# Type: cell-based
Assignment: determine reported CC50 for the given compounds.
Give bare numbers, in µg/mL.

Noted for `O=C(O)C(F)(F)F.c1cc2cc(-c3ccc(-c4nc5ccc(C6=NCCCN6)cc5[nH]4)cc3)[nH]c2cc1C1=NCCCN1` : its CC50 reads 14.1

Report CC50 for every entry below.
1. O=C(O)C(F)(F)F.c1cc2cc(-c3ccc(-c4cn5cc(C6=NCCCN6)ccc5n4)cc3)[nH]c2cc1C1=NCCCN1
2. Brc1c(-c2ccc(-c3[nH]c4cc(C5=NCCCN5)ccc4c3Br)cc2)[nH]c2cc(C3=NCCCN3)ccc12.O=C(O)C(F)(F)F
3. CC1CN=C(c2ccc3cc(-c4ccc(-c5cc6ccc(C7=NCC(C)CN7)cc6[nH]5)cc4)[nH]c3c2)NC1.O=C(O)C(F)(F)F (stereo unspecified)
4. CC(=O)O.c1cc2cc(-c3ccc4cc(C5=NCCCN5)oc4c3)[nH]c2cc1C1=NCCCN1
5. CC(=O)O.c1cc2cc(-c3cnc(-c4cc5ccc(C6=NCCCN6)cc5[nH]4)nc3)[nH]c2cc1C1=NCCCN1
6. CC(=O)O.c1cc2cc(-c3ccc4nc(C5=NCCCN5)cn4c3)[nH]c2cc1C1=NCCCN1
7. c1cc2cc(CCCc3cc4ccc(C5=NCCCN5)cc4[nH]3)[nH]c2cc1C1=NCCCN1
8. Cl.N=C(N)c1ccc2cc(-c3ccc(-c4cc5ccc(C(=N)N)cc5[nH]4)cc3)[nH]c2c1

[19.7, 0.5, 5.8, 17.1, 25.5, 91.9, 80.3, 7]

====

Assignment: determine reported MIC for the given compounds.
# Tested on: Candida albicans
# procedureSummary: Antifungal activity against Candida albicans WTBF-50 by microbroth dilution method
# Type: functional

Summary: `CN(C)CCNC(=N)c1ccc2cc(-c3ccc(-c4cc5ccc(C(=N)NCCN(C)C)cc5[nH]4)cc3)[nH]c2c1.O=C(O)C(F)(F)F` , Candida albicans, MIC = 1 µg/mL

Summary: `CC(=O)O.c1cc2nc(-c3ccc(-c4ccc5cc(C6=NCCCN6)oc5c4)cc3)cn2cc1C1=NCCCN1` , Candida albicans, MIC = 2 µg/mL

Summary: `CC(=O)O.c1cc2cc(-c3ccc(-c4ccc5cc(C6=NCCCN6)oc5c4)cc3)[nH]c2cc1C1=NCCCN1` , Candida albicans, MIC = 0.25 µg/mL

Summary: `O=C(O)C(F)(F)F.c1cc2cc(-c3ccc(-c4cc5ccc(C6=NCCCN6)cc5[nH]4)cc3)[nH]c2cc1C1=NCCCN1` , Candida albicans, MIC = 0.25 µg/mL

Report MIC for every entry below.
1. CC(=O)O.c1cc2cc(-c3ccc4nc(C5=NCCCN5)cn4c3)[nH]c2cc1C1=NCCCN1
2. CC(=O)O.c1cn2cc(-c3ccc(-c4ccc5cc(C6=NCCCN6)[nH]c5c4)cc3)nc2cc1C1=NCCCN1
3. CC1CN=C(c2ccc3cc(-c4ccc(-c5cc6ccc(C7=NCC(C)CN7)cc6[nH]5)cc4)[nH]c3c2)NC1.O=C(O)C(F)(F)F (stereo unspecified)
4. c1cc2[nH]c(-c3ccc(-c4cc5ccc(C6=NCCCN6)cc5[nH]4)cc3)cc2cc1C1=NCCCN1
5. O=C(O)C(F)(F)F.c1cc2cc(-c3ccc(-c4cc5ccc(C6=NCCN6)cc5[nH]4)cc3)[nH]c2cc1C1=NCCN1

1 µg/mL
16 µg/mL
0.5 µg/mL
7.87 µg/mL
10.1 µg/mL

Just for reference, ChEMBL document CHEMBL3600321 is where these values come from.
